Source of measurements: ChEMBL document CHEMBL1133987

Target: Histone deacetylase
Test: Inhibitory activity against histone deacetylase (HDAC) derived from partially purified extracts of human HeLa cells
So I've got a bunch of molecules here, and I need their IC50 values.
Your answer should be a plain number; it is taken to be in µM.

For CC[C@H](C)[C@@H]1NC(=O)[C@H](Cc2cn(OC)c3ccccc23)NC(=O)[C@H](CCCCCCC(=O)OC)NC(=O)[C@H]2CCCCN2CC1=O the molecule record lists IC50 as 0.007

For CC[C@H](C)[C@@H]1NC(=O)[C@H](Cc2cn(OC)c3ccccc23)NC(=O)[C@H](CCCCCSC(C)=O)NC(=O)[C@H]2CCCCN2CC1=O the molecule record lists IC50 as 0.003

For CC[C@H](C)[C@@H]1NC(=O)[C@H](Cc2cn(OC)c3ccccc23)NC(=O)[C@H](CCCCC(=O)OC)NC(=O)[C@H]2CCCCN2CC1=O the molecule record lists IC50 as 0.074

For CC[C@H](C)[C@@H]1NC(=O)[C@H](Cc2cn(OC)c3ccccc23)NC(=O)[C@H](CCCCCC(=O)c2ccccc2)NC(=O)[C@H]2CCCCN2CC1=O the molecule record lists IC50 as 0.7

For CC[C@H](C)[C@@H]1NC(=O)[C@H](Cc2cn(OC)c3ccccc23)NC(=O)[C@H](CCCCCC(=O)C(C)=O)NC(=O)[C@H]2CCCCN2CC1=O the molecule record lists IC50 as 0.03

For CCC(=O)C(=O)CCCC[C@@H]1NC(=O)[C@H]2CCCCN2CC(=O)[C@H]([C@@H](C)CC)NC(=O)[C@H](Cc2cn(OC)c3ccccc23)NC1=O the molecule record lists IC50 as 0.018

For CC[C@H](C)[C@@H]1NC(=O)[C@H](Cc2cn(OC)c3ccccc23)NC(=O)[C@H](CCCCCCC(=O)O)NC(=O)[C@H]2CCCCN2CC1=O the molecule record lists IC50 as 0.848

For CC[C@H](C)[C@@H]1NC(=O)[C@H](Cc2cn(OC)c3ccccc23)NC(=O)[C@H](CCCCNC(C)=O)NC(=O)[C@H]2CCCCN2CC1=O the molecule record lists IC50 as 2

For CC[C@H](C)[C@@H]1NC(=O)[C@H](Cc2cn(OC)c3ccccc23)NC(=O)[C@H](CCCCCP(=O)(OC)OC)NC(=O)[C@H]2CCCCN2CC1=O the molecule record lists IC50 as 0.45

For CC[C@H](C)[C@@H]1NC(=O)[C@H](Cc2cn(OC)c3ccccc23)NC(=O)[C@H](CCCCCC(C)=O)NC(=O)[C@H]2CCCCN2CC1=O the molecule record lists IC50 as 0.002
